Entry source: paper PMC6327041

# TARGET DESC: H3 10mer peptide mutated at R2 (UniProt P68431 2-11)
# TEST PROTOCOL: FP; H3R2A
REPORTED PROPERTY: pKd
// pKd here means minus log10 of the molar concentration (mol/L)

According to the records, this binder GST-PHD1 (S287-K347) of KDM5A (domain or fragment) SVNFVDLYVCMFCGRGNNEDKLLLCDGCDDSYHTFCLIPPLPDVPKGDWRCPKCVAEECSK displays pKd of 3.69
